IC50 reference
- ASSAYED_TARGET: His-GST-TVMV-hRIPK1 (1-324) (Homo sapiens (Human), UniProt Q13546)
- Sequence (Q13546 1-324): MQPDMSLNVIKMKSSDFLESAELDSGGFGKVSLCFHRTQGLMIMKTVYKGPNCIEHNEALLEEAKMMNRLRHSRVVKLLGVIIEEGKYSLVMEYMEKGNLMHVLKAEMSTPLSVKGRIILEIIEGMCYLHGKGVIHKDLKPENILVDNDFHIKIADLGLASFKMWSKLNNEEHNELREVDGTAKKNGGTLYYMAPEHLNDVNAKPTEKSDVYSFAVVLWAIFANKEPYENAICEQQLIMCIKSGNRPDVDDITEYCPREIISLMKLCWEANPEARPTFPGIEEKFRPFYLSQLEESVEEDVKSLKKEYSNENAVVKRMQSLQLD
- PROTOCOL_DETAILS: RIPK1 HTRF Binding Assay
- ASSAY_SETUP: read-out: RIPK1 HTRF (IC50); FRET probe displacement, 1 h at rt
Counter-ions that a name gives are not always drawn.
Answer with a number only, understood to be in nM.

1. CCCNC(=O)c1n[nH]c2cc(-c3cnc(OC)c(C(=O)NCc4ccccc4OC(F)(F)F)c3)ccc12 [Example 176] :: 10
2. [2H]C([2H])([2H])Oc1ncc(-c2ccc3c(C(=O)NC4CC4)n[nH]c3c2)cc1C(=O)N[C@H](C)c1cc(OC(F)(F)F)ccc1F [Example 201] :: 11
3. CNC(=O)c1n[nH]c2cc(-c3cnc(OC)c(C(=O)NCc4cc(C(F)(F)F)ccc4OC)c3)ccc12 [Example 76] :: 98
4. CNC(=O)c1n[nH]c2cc(-c3cnc(OC)c(C(=O)NCc4ccccc4OC4CCC(C)C4)c3)ccc12 (centres unmarked) [Example 131] :: 10
5. CNC(=O)c1n[nH]c2cc(-c3cnc(C)c(C(=O)NCc4cc(F)ccc4OC4CCCC4)c3)ccc12 [Example 157, TFA] :: 2.1
6. COc1ncc(-c2ccc3c(C(=O)NCC4CC4)n[nH]c3c2)cc1C(=O)NCc1ccccc1OC(F)(F)F [Example 172] :: 14
7. COc1ncc(-c2ccc3c(C(=O)NCCCN4CCCC4=O)n[nH]c3c2)cc1C(=O)NCc1ccccc1OC(F)(F)F [Example 177] :: 2.9
8. CNC(=O)c1n[nH]c2cc(-c3cnc(OC)c(C(=O)NCC4CCCOC4c4ccccc4)c3)ccc12 (centres unmarked) [Example 79] :: 1.8

Fill in IC50 for record CCNC(=O)c1n[nH]c2cc(-c3cnc(OC)c(C(=O)N[C@H](C)c4cc(OC(F)(F)F)ccc4F)c3)ccc12 [Example 233]
54

Identify the reported IC50 for the following entry. [2H]C([2H])([2H])Oc1ncc(-c2ccc3c(C(=O)NC)n[nH]c3c2)cc1C(=O)NCC[C@H](O)c1ccc(Cl)cc1 [Example 27, TFA]
2.5

Identify the reported IC50 for the following entry. COc1ncc(-c2ccc3c(C(=O)NCCO)n[nH]c3c2)cc1C(=O)NCc1ccccc1OC(F)(F)F [Example 182]
12

---

Catalogue of pIC50 values
- ASSAYED_TARGET: His-GST-TVMV-hRIPK1 (1-324) (Homo sapiens (Human), UniProt Q13546)
- PROTOCOL_DETAILS: RIPK1 HTRF Binding Assay
- ASSAY_SETUP: read-out: RIPK1 HTRF (IC50); FRET probe displacement, 1 h at rt
Quick note: pIC50 means taking -log10 of the concentration in moles per liter.

Recorded pIC50, per entry:
1) CNC(=O)c1n[nH]c2cc(-c3cnc(C)c(C(=O)N[C@H]4CC[C@@H](c5ccccc5)C4)c3)ccc12 :: 8.54
2) CNC(=O)c1n[nH]c2cc(-c3cnc(OC)c(C(=O)NCc4cccc(OC(F)(F)F)c4F)c3)ccc12 :: 7.48

Name the recorded pIC50 of the item CCN(CC)C(=O)C1CCCC(NC(=O)c2cc(-c3ccc4c(C(=O)NC)n[nH]c4c3)cnc2OC)C1 (stereo not shown) in your answer.
8.21

---

- ASSAYED_TARGET: His-GST-TVMV-hRIPK1 (1-324) (Homo sapiens (Human))
- PROTOCOL_DETAILS: RIPK1 HTRF Binding Assay
- ASSAY_SETUP: read-out: RIPK1 HTRF (IC50); FRET probe displacement, 1 h at rt
Response field label takes Fulfilled when IC50 is strictly below 20 nM and Not fulfilled in all other cases.

Does CNC(=O)c1n[nH]c2cc(-c3cc(C(=O)NC(C)c4ccccc4OC(F)(F)F)c(C)nc3C)ccc12 (stereo not shown) [Example 162] have IC50 strictly under 20 nM?
Not fulfilled

---

Recorded pIC50 for the following compounds
- ASSAYED_TARGET: His-GST-TVMV-hRIPK1 (1-324) (Homo sapiens (Human))
- PROTOCOL_DETAILS: RIPK1 HTRF Binding Assay
- ASSAY_SETUP: read-out: RIPK1 HTRF (IC50); FRET probe displacement, 1 h at rt
Where a name gives a salt, the structure may show the parent alone.
// scale note: pIC50 = -log10(conc_M); give the bare number

# count of solved cases: 5
1. [2H]C([2H])([2H])Oc1ncc(-c2ccc3c(C(=O)NC)n[nH]c3c2)cc1C(=O)NCC(C)(C)C(=O)OC(C)(C)C [Example 28, TFA] :: 7.77
2. CNC(=O)c1n[nH]c2cc(-c3cnc(OC)c(C(=O)NCc4ccccc4OCC4CCC4)c3)ccc12 :: 8.62
3. [2H]C([2H])([2H])Oc1ncc(-c2ccc3c(C(=O)NC)n[nH]c3c2)cc1C(=O)NC(C)c1cc(F)ccc1C(F)(F)F (stereo not shown) :: 8.03
4. [2H]C([2H])([2H])Oc1ncc(-c2ccc3c(C(=O)NCC4CC4)n[nH]c3c2)cc1C(=O)NCCC(=O)OC(C)(C)C :: 6.85
5. CNC(=O)c1n[nH]c2cc(-c3cnc(OC)c(C(=O)NCc4cc(F)ccc4OC(C)C)c3)ccc12 :: 8.72

Return value of pIC50 for input "CNC(=O)c1n[nH]c2cc(-c3cnc(OC)c(C(=O)NCC[C@H](O)c4ccc(Cl)cc4)c3)cc(F)c12" , no commentary.
8.02

// fetch pIC50 given entry "[2H]C([2H])([2H])Oc1ncc(-c2ccc3c(C(=O)NC4CC4)n[nH]c3c2)cc1C(=O)N[C@@H](C)c1cc(C(F)(F)F)ccc1F"
7.17

---

- ASSAYED_TARGET: His-GST-TVMV-hRIPK1 (1-324) (Homo sapiens (Human), UniProt Q13546)
- PROTOCOL_DETAILS: RIPK1 HTRF Binding Assay
- ASSAY_SETUP: read-out: RIPK1 HTRF (IC50); FRET probe displacement, 1 h at rt
Structures can show the parent of a compound that is named as a salt.
ASSAY_ENDPOINT: IC50
Report field: quantity (unit follows the number).

1. COc1ncc(-c2ccc3c(C(=O)NC4CCC(O)CC4)n[nH]c3c2)cc1C(=O)NCc1ccccc1OC(F)(F)F (stereo not shown) :: 9.6 nM
2. CNC(=O)c1n[nH]c2cc(-c3cnc(OC)c(C(=O)NCc4cccnc4OCC4CCC4)c3)ccc12 :: 4.8 nM
3. CNC(=O)c1n[nH]c2cc(-c3cnc(OC)c(C(=O)NCc4ccccc4OC(C)C)c3)ccc12 :: 1.3 nM
4. [2H]C([2H])([2H])Oc1ncc(-c2ccc3c(C(=O)NC([2H])([2H])C([2H])([2H])[2H])n[nH]c3c2)cc1C(=O)NC(C)c1cc(F)ccc1C(F)(F)F (stereo not shown) :: 58 nM
5. [2H]C([2H])([2H])Oc1ncc(-c2ccc3c(C(=O)NC4CC4)n[nH]c3c2)cc1C(=O)NC1CCCC(C(=O)N2CCCC2)C1 (stereo not shown) [Example 204, TFA] :: 12 nM

Specify measured IC50 for "CNC(=O)c1n[nH]c2cc(-c3cnc(OC)c(-c4nnn(Cc5ccccc5)n4)c3)ccc12" .
66 nM

// Input: CNC(=O)c1n[nH]c2cc(-c3cnc(OC)c(C(=O)N4CCC[C@@H](Cc5ccc(F)cc5)C4)c3)ccc12 [Example 134, TFA] . Output its IC50 only.
17 nM

---

- ASSAYED_TARGET: His-GST-TVMV-hRIPK1 (1-324) (Homo sapiens (Human))
- PROTOCOL_DETAILS: RIPK1 HTRF Binding Assay
- ASSAY_SETUP: read-out: RIPK1 HTRF (IC50); FRET probe displacement, 1 h at rt
Where a name gives a salt, the structure may show the parent alone.
Listing: log10(IC50) of selected compounds
The common logarithm of IC50 in nM is what is listed.

1) CNC(=O)c1n[nH]c2cc(-c3cnc(OC)c(C(=O)NCc4cccnc4OC)c3)ccc12 [Example 94, TFA] :: 1.00

Note down log10(IC50) recorded for "CNC(=O)c1n[nH]c2cc(-c3cnc(OC)c(C(=O)NCC(C)(C)C(=O)OC(C)(C)C)c3)ccc12"
1.20

Output measured log10(IC50) for this item: "[2H]C([2H])([2H])Oc1ncc(-c2ccc3c(C(=O)NC4CC4)n[nH]c3c2)cc1C(=O)N[C@H](C)c1cccc(C(F)(F)F)c1"
2.65

Consider the compound CNC(=O)c1n[nH]c2cc(-c3cnc(OC)c(C(=O)NCCC(C)c4ccccc4)c3)ccc12 (stereo not shown) . State its measured log10(IC50).
0.23

Report log10(IC50), nothing else, for this compound: CNC(=O)c1n[nH]c2cc(-c3cnc(OC)c(C(=O)NC4CCCC(Oc5ccccc5)C4)c3)ccc12 (stereo not shown)
0.79

Tell us which log10(IC50) value is on record for COc1ncc(-c2ccc3c(C(=O)NC4CCC(N(C)C)CC4)n[nH]c3c2)cc1C(=O)NCc1ccccc1OC(F)(F)F (stereo not shown)
1.11

Specify measured log10(IC50) for COc1ccccc1N1CC(NC(=O)c2n[nH]c3cc(-c4cnc(OC)c(C(=O)NCc5ccccc5OC(F)(F)F)c4)ccc23)CC1=O (stereo not shown) .
1.98
